- Test Summary: yeast display, Sf9 membrane polyspecificity reagent, FACS + sequencing; frameworks hold sequencing errors
Value Kind: polyreactivity (PSR sort gate)

# annotated cases, reported polyreactivity (PSR sort gate) shown
QCQLVVSGGGLVQAGGSLRISCSASGSTFGVYSMGWYRQAPGKERELFATINSGGSTNYADSVKGRFTISRDNAKNTVYLQMNSLKPEDTAVYYCASGPFWQDFYVYEYDYWGQGTQVTVSS : low polyreactivity
QVQLVESGGGLVQAGGSLRLSCAASGRTFDLYAMGWYRQAPGKERELVARITNIDDSTYYADSVKGRFTISRDNAKNTVYLQMNSLKPEDTAVYYCNAASYSRGPARYDYWGQGTQVTVSS : high polyreactivity
QVQLVESGGGLVQAGGSLRLSCAASGSIFGGYAMGWYRQAPGKERELVASITASGGSTYYADSVKGRFTISRDNAKNTVYLQMNSLKPEDTAVYYCAAEVFSGYDYDYWGQGTQVTVSS : low polyreactivity
QVQLVESGGGLVQAGGSLRLSCAASGYIFKYNAMGWYRQAPGKERELVAAISSGGSTYYADSVKGRFTISRDNAKNTVYLQMNSLKPEDTAVYYCAARGVRSARIYYYWGQGTQVTVSS : high polyreactivity

--- query ---
The recorded polyreactivity (PSR sort gate) for `QVQLVESGGGLVQAGGSLRLSCAASGGIFVFYAMGWYRQAPGKERELVAAIRYGGSSTYYADSVKGRFTISRDNAKNTVYLQMNSLKPEDTAVYYCAAEHYSVYDPIGDYWGQGTQVTVSS` is low polyreactivity
